List of Sol. values.
ASSAY: Solubility (Sol.) reported with the replicon assay
ASSAY_CONTEXT: 7-pt Assay; unit not given
Quick one: just the number, no unit, thanks!

O=C(NO)C1=C(SCCc2ccc(-c3ccccc3)cc2)CCCC1 : 100
O=C(NO)C1CCCCN1S(=O)(=O)c1ccc(Sc2ccncc2)cc1 (stereo not shown) : 320
CS(=O)(=O)N1CCN(S(=O)(=O)c2ccc(Oc3ccc(F)cc3)cc2)[C@@H](C(=O)NO)C1 : 320

Task: Complete the entry with Sol. for COC(=O)c1ccc(NC(=O)[C@H](CC(C)C)NC(=O)[C@@H](CC(=O)NO)c2ccccc2)cc1
Output: 32

Task: Complete the entry with Sol. for CC1(C)SCCN(S(=O)(=O)c2ccc(Oc3ccncc3)cc2)[C@H]1C(=O)NO
Output: 320

Task: Complete the entry with Sol. for CC(=O)N1CCN(S(=O)(=O)c2ccc(Oc3ccccc3)cc2)C(C(=O)NO)C1 (stereo not shown)
Output: 320

Task: Complete the entry with Sol. for Cc1cc(CSC(C)(C)[C@@H](NS(=O)(=O)c2ccc(Oc3ccc(Br)cc3)cc2)C(=O)NO)no1
Output: 320

Reference source for all entries: patent US20040229817A1
